# Tested on: mice spleen cells
# methodDescription: Suppression of reaction of mice spleen cells to lypopolysaccaride (LPS), in vitro (MTT)
# Format: cell-based, BDF1 mice
# testParameters: Mus musculus, 72 h; LPS, 625 ng/ml; read-out: Suppression rate
endpoint: inhibition at 0.625 µg/mL (%)
Give bare numbers, in %.

>>> recordedresult("CCCCCc1cccc(OC)c1C1=NC(C2SCC(C(O)C(C)(C)C3=NC(C)(C(=O)O)CS3)N2C)CS1 (stereo not shown) [Compound 7]")
102
>>> recordedresult("CCCCCc1cccc(O)c1C1=NC(C2SCC(C(OCc3ccc(Cl)cc3)C(C)(C)C3=NC(C)(C(=O)O)CS3)N2C)CS1 (stereo not shown) [Compound 6]")
84.3
>>> recordedresult("CCCCCc1cccc(O)c1C1=NC(C2SCC(C(O)C(C)(C)C3=NC(C)(C(=O)OCOC)CS3)N2C)CS1 (stereo not shown) [Compound 20]")
98.8

Proceeding to the next compound to report its inhibition at 0.625 µg/mL.
INPUT: Returns the measured inhibition at 0.625 µg/mL for the input compound. Input: CCCCCc1cccc(OCOC)c1C1=NC(C2SCC(C(O)C(C)(C)C3=NC(C)(C(=O)OCOC)CS3)N2C)CS1 (stereo not shown) [Compound 18]
OUTPUT: 101
